Recorded pIC50 by entry
- TARGET OF ASSAY: CyclinA2/CDK2 (Homo sapiens)
- Construct: purchased CRELUX Protein Services
- METHOD DESCRIPTION: Fluorescence Polarization (FP) competitive binding assay, Cyclin A2/Cdk2;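 also: plates equilibrated two hours at room temperature before polarization reading, IC50 fitted from eight-concentration compound titration curves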
- ASSAY CONTEXT: 8 nM Cyclin A2/Cdk2, 2 nM FAM probe; average of 2-3 independent experiments; read-out: Cyclin A FP IC50
*1 amine or outer side, *2 acyl side, *3 side chain or, on linkers, in order; H or OH if unused. Where a SMILES comes first, the peptide text is derived from it. Bridges are numbered along the chain shown (N, C = ends). [ ]: non-standard residue; d: D form. The star is where a group is joined. NMePhe(2-(4-MorPh),5-Cl) = CN[C@@H](Cc1cc(Cl)ccc1-c1ccc(N2CCOCC2)cc1)C(=O)O; X212 = CN1CCC(Oc2ccc(-c3ccc(Cl)cc3C[C@@H](C(=O)[*:2])N(C)[*:1])cn2)CC1; X18 = CC(=O)N1CCC(=Cc2ccc(Cl)cc2C[C@@H](C(=O)[*:2])N(C)[*:1])CC1; NMehhhLys(Me) = CN([C@@H](CCCCCCCN(C)[*:3])C(=O)[*:2])[*:1]; X180 = CN([C@@H](Cc1cc(F)ccc1-c1cnn2c1CCC2)C(=O)[*:2])[*:1]; NMe(hhhLys) = CN([C@@H](CCCCCCCN[*:3])C(=O)[*:2])[*:1]; cBuCO(3,3-F2-1-CF3) = O=C(C1(C(F)(F)F)CC(F)(F)C1)*; Pro(trans-4-F) = O=C(O)[C@@H]1C[C@@H](F)CN1; Gly(cPr) = N[C@H](C(=O)O)C1CC1
Friendly reminder that pIC50 comes from taking -log10 of the concentration in mol/L.

As a guide, the following entries are already answered.
{"MOLECULE": "CC(C)C[C@@H]1NC(=O)[C@@H](N(C)C(=O)[C@@H](NC(=O)[C@@H]2C[C@@H](F)CN2C(=O)C2(C(F)(F)F)CC(F)(F)C2)C2CC2)CCCCCCCN(C)C(=O)[C@H](Cc2cc(F)ccc2-c2cnn3c2CCC3)N(C)C1=O [Example 148] ({cBuCO(3,3-F2-1-CF3)}-[Pro(trans-4-F)][Gly(cPr)][NMehhhLys(Me)]L[X180]; lactam 3-C)", "METRIC NAME": "pIC50", "EXPERIMENTAL VALUE": 7.52}
{"MOLECULE": "CC(C)C[C@@H]1NC(=O)[C@@H](N(C)C(=O)[C@@H](NC(=O)[C@@H]2C[C@@H](F)CN2C(=O)C2(C(F)(F)F)CC2)C2CC2)CC=CCCCCNC(=O)[C@H](Cc2cc(Cl)ccc2Cl)N(C)C1=O (single isomer, unassigned) [Example 5-P1]", "METRIC NAME": "pIC50", "EXPERIMENTAL VALUE": 6.10}
{"MOLECULE": "COC(=O)CC[C@H](NC(=O)[C@@H]1C[C@@H](F)CN1C(=O)C1(C(F)(F)F)CC(F)(F)C1)C(=O)N(C)[C@H]1CCCCCCCN(C)C(=O)[C@H](Cc2cc(Cl)ccc2-c2ccc(N3CCOCC3)cc2)N(C)C(=O)[C@H](CC(C)C)NC1=O [Example 415] ({cBuCO(3,3-F2-1-CF3)}-[Pro(trans-4-F)]E(OMe)[NMehhhLys(Me)]L[NMePhe(2-(4-MorPh),5-Cl)]; lactam 3-C)", "METRIC NAME": "pIC50", "EXPERIMENTAL VALUE": 7.70}

Entry CC(C)C[C@@H]1NC(=O)[C@@H](N(C)C(=O)[C@@H](NC(=O)[C@@H]2C[C@@H](F)CN2C(=O)C2(C(F)(F)F)CC(F)(F)C2)C2CC2)CCCCCCCN(C)C(=O)[C@H](Cc2cc(Cl)ccc2-c2ccc(OC3CCN(C)CC3)nc2)N(C)C1=O [Example 396] ({cBuCO(3,3-F2-1-CF3)}-[Pro(trans-4-F)][Gly(cPr)][NMehhhLys(Me)]L[X212]; lactam 3-C) ; assay system CyclinA2/CDK2 (Homo sapiens); pIC50 recorded at 7.52

Entry CC(=O)N1CCC(=Cc2ccc(Cl)cc2C[C@H]2C(=O)NCCCCCCC[C@H](N(C)C(=O)[C@@H](NC(=O)[C@@H]3C[C@@H](F)CN3C(=O)C3(C(F)(F)F)CC(F)(F)C3)C3CC3)C(=O)N[C@@H](CC(C)C)C(=O)N2C)CC1 [Example 288] ({cBuCO(3,3-F2-1-CF3)}-[Pro(trans-4-F)][Gly(cPr)][NMe(hhhLys)]L[X18]; lactam 3-C) ; assay system CyclinA2/CDK2 (Homo sapiens); pIC50 recorded at 7.52

Entry CC[C@H](NC(=O)[C@@H]1C[C@@H](F)CN1C(=O)C1(C(F)(F)F)CC1)C(=O)N[C@H]1CC=CCCCCNC(=O)[C@H](Cc2cc(Cl)ccc2Cl)N(C)C(=O)[C@H](CC(C)C)NC1=O ; assay system CyclinA2/CDK2 (Homo sapiens); pIC50 recorded at 6.96

Entry CC(C)C[C@@H]1NC(=O)[C@@H](N(C)C(=O)[C@@H](NC(=O)[C@@H]2C[C@@H](F)CN2C(=O)C2(C(F)(F)F)CCC2)C2CC2)CC=CCCCCN(C)C(=O)[C@H](Cc2cc(Cl)ccc2Cl)N(C)C1=O ; assay system CyclinA2/CDK2 (Homo sapiens); pIC50 recorded at 7.10
